STUDY SYSTEM: T1, orthogonal hCD122 receptor (hoRb), hCD122 with H133D and Y134F (human, UniProt P14784 27-550); note: reference of the scale not given here
T1 sequence: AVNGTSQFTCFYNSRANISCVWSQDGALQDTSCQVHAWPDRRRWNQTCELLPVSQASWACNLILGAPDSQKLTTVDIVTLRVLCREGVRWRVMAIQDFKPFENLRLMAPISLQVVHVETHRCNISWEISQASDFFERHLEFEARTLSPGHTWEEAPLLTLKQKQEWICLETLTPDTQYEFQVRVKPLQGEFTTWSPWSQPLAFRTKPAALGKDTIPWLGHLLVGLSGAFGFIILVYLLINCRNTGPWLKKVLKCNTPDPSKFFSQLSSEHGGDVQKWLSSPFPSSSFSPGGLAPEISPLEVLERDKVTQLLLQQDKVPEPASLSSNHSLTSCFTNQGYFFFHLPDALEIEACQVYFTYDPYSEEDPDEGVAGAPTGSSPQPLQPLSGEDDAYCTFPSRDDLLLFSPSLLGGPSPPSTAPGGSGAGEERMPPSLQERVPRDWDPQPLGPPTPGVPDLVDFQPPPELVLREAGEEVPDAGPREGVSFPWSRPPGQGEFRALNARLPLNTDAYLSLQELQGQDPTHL
ASSAY SUMMARY: cell-based or functional assay
ASSAY ENDPOINT: Relative Proliferation Fold Change 3F8 1:2 (fold)

* ΔT51, SQVLKA (ligand) APTSSSTKKTQLQLSQLLVLLKAILNGINNYKNPKLTRMLTFKFYMPKKAELKHLQCLEEELKPLEEVLNLAQSKNFHLRPRDLISNINVIVLELKGSETTFMCEYADETATIVEFLNRWITFCQSIISTLT | 59.1
* ΔL19, SQ_LKA (ligand) APTSSSTKKTQLQLSQLLLLKAILNGINNYKNPKLTRMLTFKFYMPKKATELKHLQCLEEELKPLEEVLNLAQSKNFHLRPRDLISNINVIVLELKGSETTFMCEYADETATIVEFLNRWITFCQSIISTLT | 1.11
* SQVLKY (ligand) APTSSSTKKTQLQLSQLLVLLKYILNGINNYKNPKLTRMLTFKFYMPKKATELKHLQCLEEELKPLEEVLNLAQSKNFHLRPRDLISNINVIVLELKGSETTFMCEYADETATIVEFLNRWITFCQSIISTLT | 29.5
* ΔQ13, SQVLKA (ligand) APTSSSTKKTQLLSQLLVLLKAILNGINNYKNPKLTRMLTFKFYMPKKATELKHLQCLEEELKPLEEVLNLAQSKNFHLRPRDLISNINVIVLELKGSETTFMCEYADETATIVEFLNRWITFCQSIISTLT | 102
* Q74S, SQVLKA (ligand) APTSSSTKKTQLQLSQLLVLLKAILNGINNYKNPKLTRMLTFKFYMPKKATELKHLQCLEEELKPLEEVLNLASSKNFHLRPRDLISNINVIVLELKGSETTFMCEYADETATIVEFLNRWITFCQSIISTLT | 18.7
* F42K, SQVLKA (ligand) APTSSSTKKTQLQLSQLLVLLKAILNGINNYKNPKLTRMLTKKFYMPKKATELKHLQCLEEELKPLEEVLNLAQSKNFHLRPRDLISNINVIVLELKGSETTFMCEYADETATIVEFLNRWITFCQSIISTLT | 43.5
* Δ88N, SQVLKA (ligand) APTSSSTKKTQLQLSQLLVLLKAILNGINNYKNPKLTRMLTFKFYMPKKATELKHLQCLEEELKPLEEVLNLAQSKNFHLRPRDLISINVIVLELKGSETTFMCEYADETATIVEFLNRWITFCQSIISTLT | 2.59
